Test system: HOP-62 NSCLC
PROTOCOL DESCRIPTION: NCI-60 one-dose screen, 48 h
EXPERIMENTAL CONDITIONS: 10 µM unless noted
This is part of a sample that, as a whole, favours compounds with a hit. Of some 83,000 tested, about 20% had one in any assay. Activity calls are given as the source filed them. How the source made its calls: active means growth percent below 10; inactive means the rest.
Outcomes: T for active, F for inactive

compound=O=C(/C=C/c1ccccc1)c1ccc(Nc2nc(Nc3ccc(F)cc3)nc(Nc3ccc(Cl)cc3)n2)cc1 class_label=F
compound="CCN1C(=O)N(CC)C2C1NN=c1s/c(=C\\c3cnc(C)n3C)c(=O)n12 (centres undefined)" class_label=F
compound=O=C1/C(=C2\SC(=S)N(C3CC3)C2=O)SC(=S)N1C1CC1 class_label=F
compound=COC(=O)/C=C1/SC(=Nc2ccc([N+](=O)[O-])cc2)N(CCc2c[nH]c3ccc(O)cc23)C1=O class_label=F
compound=COc1ccc2c(c1)c(-c1nc(-c3c[nH]c4ncccc34)cs1)cn2CCCN1CCOCC1 class_label=F
compound=CCN1CCN(CC(=O)Nc2ccc(-c3cn4c(n3)sc3cc(Oc5ccnc(C(=O)NC)c5)ccc34)cc2)CC1 class_label=F
compound=COc1cc2c(cc1OCCCCN1CCN(C(=S)SCCC(C#N)(c3ccccc3)c3ccccc3)CC1)N=C[C@@H]1CCCN1C2=O class_label=T
compound=CN(C)CCN1C(=O)c2cccc3c(/C=C/CN4C(=O)c5cccc6cccc(c56)C4=O)ccc(c23)C1=O class_label=F
compound=Cn1cc(-c2csc(-c3c[nH]c4ccc(F)cc34)n2)c2ccnc(Cl)c21 class_label=F

====

Test system: OVCAR-8 ovarian
PROTOCOL DESCRIPTION: NCI-60 one-dose screen, 48 h (100 = growth as untreated, 0 = no growth, -100 = all killed)
EXPERIMENTAL CONDITIONS: 10 µM unless noted
About 83,000 compounds went through this panel and 20% of them were active in at least one assay; those are over-represented in the sample as a whole.
Reported growth values are given for each entry in this list.
MEASURED PROPERTY: growth (%)

chemical_structure=C/C(=N\O)c1ccc(NC(=O)CSc2nnc(-c3cc(-c4ccc(S(C)(=O)=O)cc4)nc4ccccc34)n2-c2ccccc2)cc1 measured_property=growth observed_result=82.6
chemical_structure=COCCn1cc(-c2csc(-c3c[nH]c4ccc(Br)cc34)n2)c2cccnc21 measured_property=growth observed_result=21.8
chemical_structure=Cc1ccc(/C=C(\C#N)n2nnc3cc(F)c(F)cc32)cc1 measured_property=growth observed_result=6.79
chemical_structure=O=C1NC(=O)/C(=C/c2c(-c3ccccc3)nc3sc(COc4ccccc4)nn23)S1 measured_property=growth observed_result=105
chemical_structure=COC(=O)c1ccc(NC(=O)Nc2ccc(C(=O)OC)cc2)cc1 measured_property=growth observed_result=104

====

System: UACC-257 melanoma
PROTOCOL DESCRIPTION: NCI-60 one-dose screen, 48 h (100 = growth as untreated, 0 = no growth, -100 = all killed)
EXPERIMENTAL CONDITIONS: 10 µM unless noted
Compounds without any hit were thinned out: in the full panel of roughly 83,000, 20% have a hit.
MEASURED PROPERTY: growth (%)

molecule="Nc1nc(N)c2c(n1)NC(c1ccc(Cl)cc1)C1CCc3ccccc3C1=N2 (stereo not drawn)" observed_result=58.2
molecule=CC(=O)OC[C@]12CC[C@@H]([C@@H](C)c3nnc(-c4ccncc4)o3)[C@@H]1[C@H]1CC[C@@H]3[C@@]4(C)CC[C@H](OC(C)=O)C(C)(C)[C@@H]4CC[C@@]3(C)[C@]1(C)CC2 observed_result=75.3
molecule=C/C=C(/C)n1cnc2c(Nc3ccccn3)nc(Cl)nc21 observed_result=97.6
molecule="Cc1nn(-c2cc(NC3CCC(O)CC3)c3c(=O)[nH]c(CCC(F)(F)F)cc3c2)c2c1C(=O)CC(C)(C)C2 (stereo not drawn)" observed_result=62.7
molecule=CN1CCN(c2ccc(NC(=O)c3cncnc3Nc3ccc(OCc4cccc(F)c4)c(Cl)c3)cc2)CC1 observed_result=90.5
molecule="CN(C)CCCC1(c2ccc(F)cc2)OCc2cc(-c3cc4ccccc4s3)ccc21 (stereo not drawn)" observed_result=-29.1
molecule=Cc1ccc(C(=O)c2ccc(CC(=O)N=Nc3c(O)[nH]c4ccc(Br)cc34)n2C)cc1 observed_result=105
molecule=NC(=O)c1c(NC(=O)c2cccc(C(F)(F)F)c2)sc2c1CCC(=O)C2 observed_result=-6.24
